tested on: MS2 coat protein; assay: apparent KD of MS2 coat protein; designed switch direction (-1 OFF switch, 1 ON switch): -1; higher = weaker reporter binding; settings: input ligand: none
Entries and their apparent KD of MS2 coat protein values follow.
measurement.kind: apparent KD of MS2 coat protein (nM)

1) GUGGCACUAGUGAGGAUAUGGAAAUUGACAGAUAUCCAGAAGGCACAUGAGGAUCACCCAUGUCGAAUCCAGCA [Eternabot (L1) Solution 81] (Eterna round: R97, puzzle: Brourd's mod of Exclusion 4) : 22.8
2) AAGAUACAUGAGGAUCACCCAUGUGAGGAUAUGAGCACGCCGGUGACGGUGAUAAGAAUCAGAAGGCACAAUGG [JL-ex1-4.32 salish99 mod] (Eterna round: R97, puzzle: Exclusion 1) : 327
3) GCACGGAUGGUAGGAUAUCCUUGCGAUUAGCAAGGAGAAGGACCACAUGAGGAUCACCCAUGUACCUCAAUUAUCCUUCCGUGC [Eli exng1 - 023] (Eterna round: R96, puzzle: Exclusion NG 1) : 15.8
4) CGGUGACAUGAGGAUCACCCAUGUCAGGAUAUCCAGGUCGACAAUGAGCUGUACGAUUGGAGAAGGGAUACGGG [EX1 C.9] (Eterna round: R97, puzzle: Exclusion 1) : 23.7

---

tested on: K4 kissing-loop RNA reporter; assay: apparent KD of K4 kissing-loop reporter; higher = weaker reporter binding; conditions: Eterna round: R107; input ligand: arginine 13.2 mM;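 note: bound reporter read as fluorescence of individual clusters on recovered sequencing chips by microscopy, with normalized cluster intensities fitted with a binding model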
Some sequences, each annotated with its measured apparent KD of K4 kissing-loop reporter.
measurement.kind: apparent KD of K4 kissing-loop reporter (nM)

1) UGGAUAUAGUGAUGUUAUAUAGAGAGUGAUACCAGUUUAGAGAAGAACCCUUGGCAGCAUAGAGAAGUAUCAUUAGAGAAGAAUG [ExTheophyl.Ap] : 208
2) UAUAGAGUGACGGCCGCCACUAUUGUGAUUUAAUUGUUAGAGUGAUGUUUUGAUGUUUGAUUUUGUAGGACCGGGUUAUAUGUUA [wwwzmullin] : 720
3) GGACAAGUUUCCGAUACCAGCCUUUAUGCUGGACUAGCUUGAUCAGUGGCUAGUGAUGUUGGCCCUUGGCAGCGGGACUCUUCGG [theeternabot_exclusion_KL_Theo_B_10] : 204
4) UUAGAGAUCUCAGGAUAUGAGUGAUGUUGGUAUCAAGAUCUGAGAUAGAAUUCUAUCUCAGAUCAAUCAGAAGGGAGAUCUCAUU [AK2.1 Exc FMN B] : 424
5) GCGCGUCAUGUUGGCGGGAACUAAGCCGAUACCAGCCGGGAAACCGGCCCUUGGCAGCGGCGCGCCGGAGUGAUGUUCCGACAGA [#2 Exclusion - Theophylline A Attempt #1 (HarryS)] : 246
6) ACGUCUCGUUAAAUCGUGGUUUCGAUCGAUACCAGUAGCGAGAGUUACCCUUGGCAGCGAAAUGAGUGAUGUUCAUGAAAGAAGA [KL-XTheoA9] : 109
7) AGUUCCGACGGAAGGAGCGGACAGUAUUGACGGAAAGGUGCAAGUGAUGUUUGCGCUUGUGUCCAGGUAGGUCGCCGUCGGAACA [Arg B SS t13] : 82.4

---

tested on: MS2 coat protein; experiment: apparent KD of MS2 coat protein; designed switch direction (-1 OFF switch, 1 ON switch): -1; higher = weaker reporter binding; settings: Eterna round: R95; input ligand: none
Please note: 1.0 applies when apparent KD of MS2 coat protein is 40 nM or greater, and 0.0 applies otherwise.

1. GAUAAGGUAGGAUAUACGAAUAAAAAGGGUAGAAGAAGAACACAUGAGGAUCACCCAUGUAGAAGGACCAAGAG [Mat - Exclusion 2 - Mod of my Tesla design - D23] (puzzle: Exclusion 2) : 0.0
2. UUUAAUUUUUUUUUUUUACAAGCUUUUUGCUCGUCUUAUACAUGAGGAUCACCCAUGUGAAUGGGAGAUAAAUUAUC [JMF 18] (puzzle: Sensor v3, turn-off variant 2) : 1.0
3. AAACGGCGGACCGUGGCUUUUUGCUCGUCUUGUGCUUCGACAUGAGGAUCACCCAUGUGGUGGUGGUCCGUUGUAAA [Grok-var2-15 mod JAL] (puzzle: Sensor v3, turn-off variant 2) : 1.0
4. GAUUAUGCGAGCUUUAGGGACAUGAGGAUCACCCAUGUUCGUCUUAUUAAUCUAGGUGCGCUAACAUACCUAAAUCU [JMF 47] (puzzle: Sensor v3, turn-off variant 1) : 0.0
5. AGAUGUAGAUACCGAUCCUACAUGAGGAUCACCCAUGUAGCUAGACGUGCUCGCGUAGCUCGUCAGACUACCAGUAG [salish99_TOv1_r3_087] (puzzle: Sensor v3, turn-off variant 1) : 1.0
6. GGUUGGCGAGGAUAUACAUGAGGAUCACCCAUGUGAGAGAAAAUAGUGAGGAAGAAAAGUAGAAGGCGCUGACG [salish99_ex3_r3_014] (puzzle: Exclusion 3) : 0.0
7. AAAUAAUAGAUAAAAUAAAACAUGAGGAUCACCCAUGUGGGAUGUUGAGGGUGAAACAAGCUUUUUGCUCGUCUUAU (puzzle: Sensor v3, turn-off variant 1) : 1.0
8. AGUACUCACACGAAAGUGUUAGUACAAUAAGCUUGUGAAACAUGAGGAUCACCCAUGUCCUCAUAAGCUCGUCUUAU [salish99_TOv2_r3_018] (puzzle: Sensor v3, turn-off variant 2) : 0.0
9. UGGUAACAUGAGGAUCACCCAUGUCAGGAUAUCAGUAAGAAGAGAUUAGAUUAGAAUAUGAGAAGGGACUAUAG [Excluse me! 2 - Jieux - Exclusion 1] (puzzle: Exclusion 1) : 0.0

---

system: MS2 coat protein; assay: apparent KD of MS2 coat protein; designed switch direction (-1 OFF switch, 1 ON switch): 1; higher = weaker reporter binding; settings: Eterna round: R95; input ligand: microRNA oligo, concentration not stated
Quick rule: apparent KD of MS2 coat protein of at least 50 nM means T, below that means F.

1) UACAAUCUAUCUGAGGAUAUCAUGAAAUAAACAUGAGGAUCACCCAUGUGCAGGAAAACUGCAUAUGAGAAGGCAGAUAGAUUGU [salish99_ss2_r3_059] (puzzle: Same State 2) : T
2) AGAAAACAUGAGGAUCACCCAUGUAUAGUGAAUACAGGAUAUCACCGGCUGAAAAGCCGGUGAGAAGGGUGAUCGC [Atorenri] (puzzle: Same State 1) : F
3) UUGGUGUAGAUACAGGAUAUGUUGCUCGUAACAUGAGGAUCACCCAUGUAUCUAUGAGAUUAAAUGCAGAAGGGUGCACAUCACU [salish99_ss2_r3_088] (puzzle: Same State 2) : T
4) CAAGCUUGGGUCUUCCCGCUCGUCUACAAACAUGAGGAUCACCCAUGUAUACUCUUCGCAUCAAUUCUAUCUCUUGG [Onraenbi] (puzzle: Sensor for hsa-mir-208a) : F
5) GGUGUACAUGAGGAUCACCCAUGUCGACCGCUCACAGGAUAUUUAUUACAAACUGGUAGCGGAGAAGGGUGAGGGC [Maarraar] (puzzle: Same State 1) : F
6) UAGAGAGGAAGCGAGGAUAUCGUGGGAGGAACAUGAGGAUCACCCAUGUGUGAUGUUGAGAGGAACGAGAAGGCGCAGGAAAGUA [JR_SS2_Sub078] (puzzle: Same State 2) : T
7) GUAGCAUGCAGCGAGGAUAUUCAUAUUAAAACAUGAGGAUCACCCAUGUAGGCCAAAAGGCCUUGGGAGAAGGCGCACAUGCUAC [Xeonanis - 20] (puzzle: Same State 2) : T
8) UGGAUCUAGGCUUGCCUGGGUCCAUGCUGACAUGAGGAUCACCCAUGUGCAUCCUACAAGCUUUUUGCUUGUCUGUC (puzzle: Sensor for hsa-mir-208a) : T
9) GGAGCCGGCACUGAGGAUAUUCAUAGUGUAACAUGAGGAUCACCCAUGUAGGCCCUGAGGCCUUGGGAGAAGGCAGGUCGGCUCG [JL-ss2-3.04 ViennaUCT mod] (puzzle: Same State 2) : T

---

tested on: MS2 coat protein; test: apparent KD of MS2 coat protein; higher = weaker reporter binding; conditions: Eterna round: R107; input ligand: theophylline 20 uM
measurement.kind: apparent KD of MS2 coat protein (nM)

1) AAUUCCUCACAUGAGGAUCACCCAUGUGAAGGAGCGCGGAAUAACGCAGGUAGGUCGCACAUGGAAACCGCUGCGAAAGCAGCAA [MAT - Exclusion Arginine A - Mod of Eli - D26] : 24
2) AUCCUCUAGAAUGAUACCAGACCAAACAUGAGGAUCACCCAUGUAUCAGGCAAUUGUUACGUCCCUUGGCAGCAUGUAUGCCGAC [Theo B SS t3] : 31.5
3) AGACUGUCUUCGGACAGUCCGGACAGCCCGCGAGGACCGGUACGGCCGCCACUCGCGUGAGGAUCACCCAUGCGAGGCUGUCCGA [Omei Tryp A Exc A v1] : 40.1
4) UGGUACAUGAGGAUCACCCAUGUUCCAGAUACCAGUGUCCCGCUGCACCCUUGGCAGCUGGUGGUACAUGAGGAUCACCCAUGUG [Exclusion Theophylline A GF11] : 42.7
5) AUCUUUGACGAUCUGGGAAAACCAGAUCGGCGAGGACCGGUACGGCCGCCACUCGUGUAUAAUAUACAUGAGGAUCACCCAUGUA [#19 Tryptophan A Same State] : 61.3
6) GGGAGGUAGGCGGCCGCCACUGAUUUUCAUAUAUAUAUAACAUGAGGAUCACCCAUGUAGAUAUGCAGGACCGGGCCUGUUUUUU [aaaK] : 30.5
